# Measured On: 5-hydroxytryptamine receptor 7 (Homo sapiens, UniProt P34969)
# Sequence (P34969 whole entry): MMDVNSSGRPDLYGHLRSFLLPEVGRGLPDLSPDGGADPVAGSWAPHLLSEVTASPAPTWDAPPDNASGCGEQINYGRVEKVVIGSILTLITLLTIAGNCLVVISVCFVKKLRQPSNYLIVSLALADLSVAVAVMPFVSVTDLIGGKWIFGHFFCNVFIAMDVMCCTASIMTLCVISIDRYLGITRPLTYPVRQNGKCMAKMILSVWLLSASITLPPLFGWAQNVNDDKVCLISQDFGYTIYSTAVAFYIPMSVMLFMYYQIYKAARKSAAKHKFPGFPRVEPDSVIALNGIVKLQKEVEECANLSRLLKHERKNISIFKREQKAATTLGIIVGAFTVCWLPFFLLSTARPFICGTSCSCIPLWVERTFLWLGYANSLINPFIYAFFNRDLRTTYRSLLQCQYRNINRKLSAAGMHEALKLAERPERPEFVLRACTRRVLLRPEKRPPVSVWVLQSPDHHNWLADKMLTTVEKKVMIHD
# Assay Overview: Inhibition (at 1 uM) of radioligand [3H]LSD binding to human 5-hydroxytryptamine 7 receptor on HEK293 cells
# Assay type: cell-based

{"columns": ["Compound", "inhibition [%]"],
 "data": [
  ["CC(C)(C)CN1CCCN(CCn2ccc3ccc(Br)cc32)CC1", 70],
  ["CN1CCCN(CCn2ccc3ccc(F)cc32)CC1", 60],
  ["CC1CN(CCn2ccc3ccc(Br)cc32)CCN1 (stereo not given)", 52],
  ["Brc1ccc2ccn(CCN3CCC4CCCCN4CC3)c2c1 (stereo not given)", 71],
  ["CN1CCCN(CCn2ccc3ccc(O)cc32)CC1", 28],
  ["Brc1ccc2ccn(CCN3CCCN(c4ccccc4)CC3)c2c1", 18],
  ["CN1CCCN(CCn2ccc3ccc(Br)cc32)CC1", 93],
  ["Brc1ccc2ccn(CCN3CCN4CCCC4C3)c2c1 (stereo not given)", 72],
  ["CC(C)CN1CCCN(CCn2ccc3ccc(Br)cc32)CC1", 95],
  ["Brc1ccc2ccn(CCN3CCCN4CCCCC4C3)c2c1 (stereo not given)", 99],
  ["CN1CCCN(CCn2ccc3ccc(N)cc32)CC1", 0],
  ["CN1CCCN(CCn2ccc3ccc([N+](=O)[O-])cc32)CC1", 72],
  ["Brc1ccc2ccn(CCN3CCN(C4CCCCC4)CC3)c2c1", 36],
  ["CN1CCCN(CCn2ccc3ccc(-c4cccnc4)cc32)CC1", 35],
  ["Brc1ccc2ccn(CCN3CCCN(C4CC4)CC3)c2c1", 96],
  ["CN1CCCN(CCn2ccc3ccc(OCc4ccccc4)cc32)CC1", 28],
  ["Brc1ccc2c(ccn2CCN2CCN3CCCCC3C2)c1 (stereo not given)", 65],
  ["Cc1ccc2ccn(CCN3CCCN(C)CC3)c2c1", 62],
  ["CC(C)N1CCCN(CCn2ccc3ccc(Br)cc32)CC1", 92],
  ["CN1CCCN(CCn2ccc3c(Br)cccc32)CC1", 33],
  ["Brc1ccc2ccn(CCN3CCCN(CC4CC4)CC3)c2c1", 95],
  ["CCc1ccc2ccn(CCN3CCCN(C)CC3)c2c1", 66],
  ["Brc1cccc2c1ccn2CCN1CCN2CCCCC2C1 (stereo not given)", 43],
  ["C=C(C)c1ccc2ccn(CCN3CCCN(C)CC3)c2c1", 72],
  ["Brc1ccc2ccn(CCN3CCCN(C4CCCCC4)CC3)c2c1", 96],
  ["CN1CCCN(CCn2ccc3ccc(C(C)(C)O)cc32)CC1", 6],
  ["Brc1ccc2ccn(CCN3CCCNCC3)c2c1", 77],
  ["CC(C)c1ccc2ccn(CCN3CCCN(C)CC3)c2c1", 72],
  ["CN1CCCN(CCn2ccc3ccc(-c4ccsc4)cc32)CC1", 68],
  ["CN1CCCN(CCn2ccc3ccc(Cl)cc32)CC1", 85],
  ["Brc1ccc2ccn(CCN3CCCN(C4CCCC4)CC3)c2c1", 98],
  ["Brc1ccc2ccn(CCN3CCNCC3)c2c1", 61],
  ["C#Cc1ccc2ccn(CCN3CCCN(C)CC3)c2c1", 79],
  ["CN1CCCN(CCn2ccc3cc(Br)ccc32)CC1", 65],
  ["CN1CCCN(CCn2ccc3ccc(C(F)(F)F)cc32)CC1", 89],
  ["Brc1ccc2ccn(CCN3CCN4CCCCC4C3)c2c1 (stereo not given)", 78],
  ["C=Cc1ccc2ccn(CCN3CCCN(C)CC3)c2c1", 79],
  ["CN1CCCN(CCn2ccc3ccc(C(N)=O)cc32)CC1", 33],
  ["CC1CN(CCn2ccc3ccc(Br)cc32)CC(C)N1 (stereo not given)", 26],
  ["Brc1cccc2ccn(CCN3CCN4CCCCC4C3)c12 (stereo not given)", 13]
]}
